In what follows, each item is paired with its pIC50 for UniProt:P49327.
pIC50: −log10 of the molar value.
measured-attribute: pIC50

• CC(C)Nc1ccc(C(=O)Nc2cc(C(=O)N3CCC(c4ccc(-c5cccnc5)cc4)CC3)ccc2Cl)cn1 = 7.32

I = Cc1ccc(C(=O)N2CC[C@H](c3ccc(-c4ccnn4C)cc3)[C@H](C)C2)cc1NC(=O)c1ccc(Cl)nc1 (racemic)
II = CC(C)Nc1ccc(C(=O)Nc2cc(C(=O)N3CC(c4ccc(-c5cccnc5)cc4)C3)ccc2Cl)cn1
III = Cc1ccc(C(=O)N2CC(c3ccc(-c4ccc5c(cnn5C)c4)cc3)C2)cc1NC(=O)c1ccc(NC(C)C)nc1
Output the entries ranked by pIC50 from maximum down to minimum. Lab note: final answer is the ordered label list.
II, III, I

###

molecular target: hFASN enzyme (full length) (Homo sapiens, UniProt P49327); construct: 10 μL hFASN enzyme (full length, 300 ng, purified in house); made in house; assay: Fatty Acid Synthase (FASN) Inhibition Scintillation Proximity Assay; format: biochemical; details: mean where tested more than once; ~ = standard error of pIC50 larger than 0.5
Sequence (P49327 whole entry): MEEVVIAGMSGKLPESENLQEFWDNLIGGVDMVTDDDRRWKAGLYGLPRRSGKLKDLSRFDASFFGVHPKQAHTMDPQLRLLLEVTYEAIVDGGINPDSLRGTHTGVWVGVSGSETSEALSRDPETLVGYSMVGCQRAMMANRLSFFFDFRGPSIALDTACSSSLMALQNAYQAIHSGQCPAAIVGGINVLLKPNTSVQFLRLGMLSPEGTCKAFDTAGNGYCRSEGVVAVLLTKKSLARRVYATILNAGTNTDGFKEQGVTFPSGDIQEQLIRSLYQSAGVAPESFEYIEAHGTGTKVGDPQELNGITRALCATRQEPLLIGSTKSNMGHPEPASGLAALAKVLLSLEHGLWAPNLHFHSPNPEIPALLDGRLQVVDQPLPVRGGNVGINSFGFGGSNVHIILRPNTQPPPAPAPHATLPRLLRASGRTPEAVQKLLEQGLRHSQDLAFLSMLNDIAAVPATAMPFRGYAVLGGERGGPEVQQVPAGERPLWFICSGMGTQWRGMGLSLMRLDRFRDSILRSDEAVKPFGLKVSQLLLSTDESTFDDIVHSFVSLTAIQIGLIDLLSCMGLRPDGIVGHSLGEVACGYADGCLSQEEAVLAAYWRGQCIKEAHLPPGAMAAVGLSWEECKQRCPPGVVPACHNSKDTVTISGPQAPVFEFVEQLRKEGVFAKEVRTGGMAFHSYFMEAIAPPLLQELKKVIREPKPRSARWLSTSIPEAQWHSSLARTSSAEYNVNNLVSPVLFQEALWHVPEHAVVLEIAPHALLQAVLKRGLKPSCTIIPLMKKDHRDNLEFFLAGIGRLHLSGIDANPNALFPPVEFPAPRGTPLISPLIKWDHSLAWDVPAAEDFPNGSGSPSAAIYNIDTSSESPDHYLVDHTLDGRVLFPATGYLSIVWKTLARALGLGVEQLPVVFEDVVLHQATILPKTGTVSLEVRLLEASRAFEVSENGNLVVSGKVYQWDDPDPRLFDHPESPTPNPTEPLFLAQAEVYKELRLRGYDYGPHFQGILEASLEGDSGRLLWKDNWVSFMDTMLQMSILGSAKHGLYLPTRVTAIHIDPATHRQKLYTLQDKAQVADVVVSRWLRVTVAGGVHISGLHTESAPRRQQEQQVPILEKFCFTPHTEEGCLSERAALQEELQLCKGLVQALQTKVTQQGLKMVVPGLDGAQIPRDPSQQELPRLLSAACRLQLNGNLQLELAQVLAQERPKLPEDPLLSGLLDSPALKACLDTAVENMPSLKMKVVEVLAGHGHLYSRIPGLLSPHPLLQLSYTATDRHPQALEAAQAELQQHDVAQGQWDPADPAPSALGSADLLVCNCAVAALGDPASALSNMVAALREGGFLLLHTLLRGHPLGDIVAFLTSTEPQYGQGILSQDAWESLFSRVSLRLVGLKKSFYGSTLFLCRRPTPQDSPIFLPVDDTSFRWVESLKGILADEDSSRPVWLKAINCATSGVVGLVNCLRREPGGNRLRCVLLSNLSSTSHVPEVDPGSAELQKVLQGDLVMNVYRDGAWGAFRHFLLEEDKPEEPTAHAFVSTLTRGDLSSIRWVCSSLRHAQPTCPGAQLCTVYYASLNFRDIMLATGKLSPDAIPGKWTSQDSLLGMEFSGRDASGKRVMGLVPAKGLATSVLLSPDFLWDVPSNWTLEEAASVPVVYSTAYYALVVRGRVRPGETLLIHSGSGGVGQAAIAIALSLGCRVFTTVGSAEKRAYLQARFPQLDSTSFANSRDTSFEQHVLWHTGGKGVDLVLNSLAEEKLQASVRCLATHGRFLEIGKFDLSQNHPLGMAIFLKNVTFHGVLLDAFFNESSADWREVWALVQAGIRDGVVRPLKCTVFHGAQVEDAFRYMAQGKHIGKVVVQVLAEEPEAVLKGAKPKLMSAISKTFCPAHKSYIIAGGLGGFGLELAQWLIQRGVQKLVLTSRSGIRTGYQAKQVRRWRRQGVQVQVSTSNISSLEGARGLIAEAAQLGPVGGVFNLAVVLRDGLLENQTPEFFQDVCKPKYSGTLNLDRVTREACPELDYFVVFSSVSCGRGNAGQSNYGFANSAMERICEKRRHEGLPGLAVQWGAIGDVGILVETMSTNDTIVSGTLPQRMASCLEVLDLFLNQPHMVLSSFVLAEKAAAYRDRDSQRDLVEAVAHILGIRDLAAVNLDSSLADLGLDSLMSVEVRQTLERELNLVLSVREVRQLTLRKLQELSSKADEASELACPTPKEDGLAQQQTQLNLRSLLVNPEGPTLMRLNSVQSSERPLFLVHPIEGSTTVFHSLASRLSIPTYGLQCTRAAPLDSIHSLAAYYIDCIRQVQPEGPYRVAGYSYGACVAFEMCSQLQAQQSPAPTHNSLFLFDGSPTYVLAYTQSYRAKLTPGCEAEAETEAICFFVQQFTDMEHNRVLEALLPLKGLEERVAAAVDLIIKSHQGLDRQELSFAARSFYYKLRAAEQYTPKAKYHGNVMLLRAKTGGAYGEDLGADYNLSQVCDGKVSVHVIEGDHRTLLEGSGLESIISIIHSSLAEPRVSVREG
pIC50: −log10 of the molar value.
measured-attribute: pIC50

Solved cases (2 shown):
- Cc1ccc(C(=O)N2CCC(c3ccc(-c4cnn(C)c4)cn3)CC2)cc1NC(=O)c1ccc(NC(C)C)nc1: 7.23
- Cc1ccc(C(=O)N2CCC(c3ccc(-c4ccccc4C)cc3)CC2)cc1NC(=O)c1ccc(NC(C)C)nc1: 6.49

I = Cc1ccc(C(=O)N2CC(c3ccc(-c4cnn(C)c4)cc3)C2)cc1NC(=O)c1ccc(N(C)C2CCN(C)CC2)nc1
II = Cc1ccc(C(=O)N2CC(c3ccc(-c4cnn(C)c4)cc3)C2)cc1NC(=O)C1CCC1
III = Cc1ccc(C(=O)N2CCC(c3ccc(-c4cnn(C)c4)cc3)CC2)cc1NC(=O)c1cccc(Cl)c1
Ascending by pIC50, please: list the molecules accordingly. Lab note: final answer is the ordered label list.
II, III, I

I = Cc1ccc(C(=O)N2CCC(c3ccc(-n4ccnc4)cc3)C(C)(C)C2)cc1NC(=O)c1ccc(NC(C)C)nc1 (stereo not shown)
II = Cc1ccc(C(=O)N2CCC(c3ccc(-c4cnn(C)c4)cc3)CC2)cc1NC(=O)C1CCN(C(C)C)CC1
Which value of pIC50 is smaller, the one for I or the one for II ? Mark your selection by writing its label.
I
(I: 7.35, II: 7.56)

###

test system: LNCaP_Vancouver prostate cells; assay: In Vitro LNCaP Vancouver Prostate Cell Proliferation Assay in Lipid Reduced Medium; format: cell-based; settings: lipid reduced serum, 96 h, read-out: Vancouver Cells pIC50 (converted)
measured-attribute: IC50 (nM)

- CC(C)Nc1ccc(C(=O)Nc2cc(C(=O)N3CCC(c4ccc(-c5cnn(C)c5)cc4)CC3)ccc2NC2CC2)cn1: 1050
- COCCNc1ccc(C(=O)N2CCC(c3ccc(-c4cnn(C)c4)cc3)CC2)cc1NC(=O)c1ccc(NC(C)C)nc1: 1020

###

tested on: A2780 ovarian cells; assay: A2780 Ovarian Cell Proliferation Assay in Lipid Reduced Medium, without Palmitate; assay type: cell-based; settings: Homo sapiens, A2780; lipid reduced medium, without palmitate, 96 h, MTT; read-out: Proliferation A2780 w/o Palmitate pIC50 (converted)
measured-attribute: IC50 (nM)

Solved cases (3 shown):
- Cc1ccc(C(=O)N2CCC(c3ccc(-c4cnn(C)c4)cc3)CC2)cc1NC(=O)C(C)(C)C: 575
- Cc1ccc(C(=O)N2CC[C@H](c3ccc(-c4ccnn4C)cc3)[C@H](C)C2)cc1NC(=O)c1ccc(NC(C)C)nc1 (racemic): 1050
- CCCN1CC(C(=O)Nc2cc(C(=O)N3CCC(c4ccc(-c5cnn(C)c5)cc4)CC3)ccc2C)C1: 275

a = Cc1ccc(C(=O)N2CCC(c3ccc(-c4cnn(C)c4)cc3)CC2)cc1NC(=O)C(C)C
b = Cc1ccc(C(=O)N2CC(c3ccc(-c4cnn(C)c4)cc3)C2)cc1NC(=O)c1ccccn1
c = Cc1ccc(C(=O)N2CCC(c3ccc(-c4cnn(C)c4)cc3)CC2)cc1NC(=O)C1CCN(C2CCC2)CC1
d = Cc1ccc(C(=O)N2CC(c3ccc(-c4cccc5ncccc45)cc3)C2)cc1NC(=O)c1ccc(NC(C)C)nc1
Output the entries ranked by IC50 from maximum down to minimum. Lab note: final answer is the ordered label list.
b, a, d, c
(b: 692 nM, a: 275 nM, d: 49 nM, c: 10 nM)

###

tested on: LNCaP_Vancouver prostate cells; assay: In Vitro LNCaP Vancouver Prostate Cell Proliferation Assay in Lipid Reduced Medium; format: cell-based; settings: lipid reduced serum, 96 h, read-out: Vancouver Cells pIC50 (converted)
measured-attribute: IC50 (nM)

Solved cases (6 shown):
• CNc1ccc(C(=O)N2CCC(c3ccc(-c4cnn(C)c4)cc3)CC2)cc1NC(=O)c1ccc(NC(C)C)nc1 [Compound #279] = 263
• CC(C)Nc1ccc(C(=O)Nc2cc(C(=O)N3CCC(c4ccc(-c5cnn(C)c5)cc4)CC3)ccc2N(C)C)cn1 [Compound 280] = 372
• CC(C)Nc1ccc(C(=O)Nc2cc(C(=O)N3CCC(c4ccc(-c5cnn(C)c5)cc4)CC3)ccc2N(C)C(C)C)cn1 [Compound 276] = 1380
• CC(C)N(C)c1ccc(C(=O)N2CCC(c3ccc(-c4cnn(C)c4)cc3)CC2)cc1NC(=O)c1ccc(Cl)nc1 [Compound 274] = 1950
• CN(C)c1ccc(C(=O)N2CCC(c3ccc(-c4cnn(C)c4)cc3)CC2)cc1NC(=O)c1ccc(Cl)nc1 [Compound 275] = 692
• Cc1ccc(C(=O)N2CCC(c3ccc(-c4cnn(C)c4)cc3)CC2)cc1NC(=O)c1ccc(NC(C)C)nc1 [Compound #32] = 93.3

a = CC(C)Nc1ccc(C(=O)Nc2cc(C(=O)N3CCC(c4ccc(-c5cnn(C)c5)cc4)CC3)ccc2N(C)C2CC2)cn1 [Compound 287]
b = Cc1ccc(C(=O)N2CC(c3ccc(-c4cnn(C)c4)cc3)C2)cc1NC(=O)c1ccc(N2CCOCC2)nc1 [Compound #66]
c = COCCN(C)c1ccc(C(=O)N2CCC(c3ccc(-c4cnn(C)c4)cc3)CC2)cc1NC(=O)C1CC1 [Compound 278]
d = CN(C)c1ccc(C(=O)N2CCC(c3ccc(-c4cnn(C)c4)cc3)CC2)cc1NC(=O)C1CC1 [Compound #273]
e = COCCNc1ccc(C(=O)N2CCC(c3ccc(-c4cnn(C)c4)cc3)CC2)cc1NC(=O)C1CC1 [Compound 286]
Output the entries ranked by IC50 from maximum down to minimum. Lab note: final answer is the ordered label list.
c, e, d, a, b
(c: 6170 nM, e: 4070 nM, d: 2190 nM, a: 977 nM, b: 29.5 nM)

###

molecular target: hFASN enzyme (full length) (Homo sapiens); construct: 10 μL hFASN enzyme (full length, 300 ng, purified in house); made in house; assay: Fatty Acid Synthase (FASN) Inhibition Scintillation Proximity Assay; assay type: biochemical; settings: read-out: FASN % Effect @1E−05M
measured-attribute: inhibition at 10 µM (%)

Solved cases (2 shown):
- Cc1ccc(C(=O)N2CC[C@H](c3ccc(-c4ccnn4C)cc3)[C@@H](C)C2)cc1NC(=O)c1ccc(NC(C)C)nc1 (racemic): 120
- Cc1ccc(C(=O)N2CC(c3ccc(-c4cnn(C)c4)cc3)C2)cc1NC(=O)c1ccccn1: 110

I = Cc1ccc(C(=O)N2CCC(c3ccc(-c4cnn(C)c4)cc3)CC2)cc1NC(=O)C1CCN(CC(C)(C)C)CC1
II = Cc1ccc(C(=O)N2CCC(c3ccc(-c4cccs4)cc3)CC2)cc1NC(=O)c1ccc(NC(C)C)nc1
Which record would sort first by descending inhibition at 10 µM, I or II ? Mark your selection by writing its label.
I

I = Cc1ccc(C(=O)N2CC(c3ccc(-c4cnn(C)c4)cc3)C2)cc1NC(=O)C1CC1
II = COc1ccc(-c2ccc(C3CCN(C(=O)c4ccc(C)c(NC(=O)c5ccc(NC(C)C)nc5)c4)CC3)cc2)cc1
Which value of inhibition at 10 µM is smaller, the one for I or the one for II ? Mark your selection by writing its label.
II
(II: 59%, I: 106%)

###

biological target: FASN Keto-reductase Domain (Homo sapiens); construct: 10 μL hFASN enzyme (full length, 300 ng, purified in house) and 360 μM NADPH; made in house; test: Fatty Acid Synthase Keto-Reductase Domain (FASN KR) Inhibition; assay type: biochemical; details: mean where tested more than once; read-out: FASN K-R Domain pIC50 (converted)
Sequence (P49327 whole entry, the tested form may be a part): as the sequence (P49327 whole entry) above
measured-attribute: IC50 (µM)

• Cc1ccc(C(=O)N2CCC(c3ccc4ccncc4c3)CC2)cc1NC(=O)c1ccc(Cl)nc1 = 0.562
• CCCCCCN1CCC(C(=O)Nc2cc(C(=O)N3CCC(c4ccc(-c5cnn(C)c5)cc4)CC3)ccc2C)CC1 = 0.0912
• Cc1ccc(C(=O)N2CCC(c3ccc(-c4cnn(C)c4)nc3)CC2)cc1NC(=O)c1ccc(Cl)nc1 = 2.75
• Cc1ccc(C(=O)N2CCC(c3ccc(-c4cnn(C)c4)cc3)CC2)cc1NC(=O)c1cnc(NC(C)C)nc1 = 0.0324
• CC(C)Nc1ccc(C(=O)Nc2cc(C(=O)N3CCC(c4ccc(-c5cnn(C)c5)cc4)CC3)ccc2N(C)C(C)C)cn1 = 0.479
• Cc1ccc(C(=O)N2CC[C@H](c3ccc(-n4ccnc4)cc3)[C@@H](C)C2)cc1NC(=O)c1ccc(Cl)nc1 (racemic) = 0.288

I = CCC(=O)N[C@@H]1CC[C@H](C(=O)Nc2cc(C(=O)N3CCC(c4ccc(-c5ccnn5C)cc4)CC3)ccc2C)C1
II = COc1ccc(C(=O)Nc2cc(C(=O)N3CC(c4ccc(-c5cnn(C)c5)cc4)C3)ccc2C)cc1
III = Cc1ccc(C(=O)N2CC(c3ccc(-c4cnn(C)c4)cc3)C2)cc1NC(=O)c1ccc(N2CCCC2)nc1
Output the entries ranked by IC50 from maximum down to minimum. Lab note: final answer is the ordered label list.
I, II, III
(I: 0.229 µM, II: 0.0457 µM, III: 0.0245 µM)

I = Cc1ccc(C(=O)N2CCC(c3ccc(-c4cnn(C)c4)cc3)CC2)cc1NC(=O)C1CCN(C2CCCCC2)CC1
II = Cc1ccc(C(=O)N2CCC(c3ccc4ccncc4c3)CC2)cc1NC(=O)c1ccc(NC(C)C)nc1
III = Cc1ccc(C(=O)N2CCC(c3ccc(-c4cnn(C)c4)cc3)CC2)cc1NC(=O)c1ccc(F)cc1
Output the entries ranked by IC50 from maximum down to minimum. Lab note: final answer is the ordered label list.
II, III, I

I = Cc1ccc(C(=O)N2CCC(c3ccc(-c4cccc(F)c4)cc3)CC2)cc1NC(=O)c1ccc(NC(C)C)nc1
II = COc1ccc(C(=O)Nc2cc(C(=O)N3CCC(c4ccc(-c5cnn(C)c5)cc4)CC3)ccc2C)cc1
Which value of IC50 is smaller, the one for I or the one for II ? Mark your selection by writing its label.
II
